src = ChEMBL document CHEMBL1177643

system: SNB-75; assay: Growth inhibition of human SNB75 cells after 48 hrs by sulforhodamine B assay; format: functional; conditions: SNB-75, 48 h
assay readout: GI50 (nM)

- COc1cc(-c2nc3ccccc3s2)ccc1OCCCCOc1cc2c(cc1OC)C(=O)N1CCC[C@H]1C=N2: 1230
- COc1cc2c(cc1OCCCCC(=O)Nc1ccc(-c3nc4ccccc4s3)cc1)N=C[C@@H]1CCCN1C2=O: 1820
- COc1cc2c(cc1OCCCCCOc1ccc(-c3nc4ccccc4s3)cc1)N=C[C@@H]1CCCN1C2=O: 1200
- COc1cc(-c2nc3ccccc3s2)ccc1OCCCCCOc1cc2c(cc1OC)C(=O)N1CCC[C@H]1C=N2: 145
- COc1cc2c(cc1OCCCCOc1ccc(-c3nc4ccccc4s3)cc1)N=C[C@@H]1CCCN1C2=O: 1070

----------
Reported Activity values follow for various molecules
tested on: A-375; assay: Cell cycle arrest in human A375 cells assessed as accumulation at G0/G1 phase at 2 uM after 24 hrs using propidium iodide staining by flow cytometry; assay type: functional
assay readout: Activity (%)

- COc1cc(-c2nc3ccccc3s2)ccc1OCCCCCOc1cc2c(cc1OC)C(=O)N1CCC[C@H]1C=N2: 93.79
- COc1cc2c(cc1OCCCCC(=O)Nc1ccc(-c3nc4ccccc4s3)cc1)N=C[C@@H]1CCCN1C2=O: 88.44
- COc1cc2c(cc1O)N=C[C@@H]1CCCN1C2=O: 77.93
- COc1cc(-c2nc3ccccc3s2)ccc1OCCCCOc1cc2c(cc1OC)C(=O)N1CCC[C@H]1C=N2: 90.55

----------
tested on: A-375; assay: Cell cycle arrest in human A375 cells assessed as accumulation at G1 phase at 2 uM after 24 hrs using propidium iodide staining by flow cytometry; format: functional
assay readout: Activity (%)

• COc1cc(-c2nc3ccccc3s2)ccc1OCCCCCOc1cc2c(cc1OC)C(=O)N1CCC[C@H]1C=N2 = 67.04
• COc1cc(-c2nc3ccccc3s2)ccc1OCCCCOc1cc2c(cc1OC)C(=O)N1CCC[C@H]1C=N2 = 69.69
• COc1cc2c(cc1O)N=C[C@@H]1CCCN1C2=O = 67.23
• COc1cc2c(cc1OCCCCC(=O)Nc1ccc(-c3nc4ccccc4s3)cc1)N=C[C@@H]1CCCN1C2=O = 73.34

----------
Reported GI50 by item:
assay: Growth inhibition of human […] cells after 48 hrs by sulforhodamine B assay; format: functional
assay readout: GI50 (µM)

• COc1cc(-c2nc3ccccc3s2)ccc1OCCCCOc1cc2c(cc1OC)C(=O)N1CCC[C@H]1C=N2 = 0.309
• COc1cc2c(cc1OCCCCCOc1ccc(-c3nc4ccccc4s3)cc1)N=C[C@@H]1CCCN1C2=O = 0.398
• COc1cc2c(cc1OCCCCOc1ccc(-c3nc4ccccc4s3)cc1)N=C[C@@H]1CCCN1C2=O = 0.214
• COc1cc2c(cc1OCCCCC(=O)Nc1ccc(-c3nc4ccccc4s3)cc1)N=C[C@@H]1CCCN1C2=O = 1.45
• COc1cc(-c2nc3ccccc3s2)ccc1OCCCCCOc1cc2c(cc1OC)C(=O)N1CCC[C@H]1C=N2 = 0.0741

----------
Recorded GI50 values for a group of compounds are listed next.
system: HOP-62; assay: Growth inhibition of human HOP62 cells after 48 hrs by sulforhodamine B assay; format: functional; conditions: HOP-62, 48 h
assay readout: GI50 (nM)

- COc1cc2c(cc1OCCCCC(=O)Nc1ccc(-c3nc4ccccc4s3)cc1)N=C[C@@H]1CCCN1C2=O: 2450
- COc1cc2c(cc1OCCCCCOc1ccc(-c3nc4ccccc4s3)cc1)N=C[C@@H]1CCCN1C2=O: 407
- COc1cc(-c2nc3ccccc3s2)ccc1OCCCCCOc1cc2c(cc1OC)C(=O)N1CCC[C@H]1C=N2: 45.7
- COc1cc(-c2nc3ccccc3s2)ccc1OCCCCOc1cc2c(cc1OC)C(=O)N1CCC[C@H]1C=N2: 1410
- COc1cc2c(cc1OCCCCOc1ccc(-c3nc4ccccc4s3)cc1)N=C[C@@H]1CCCN1C2=O: 407

----------
experiment: Toxicity in SCID mouse; type: organism-based; details: in vivo
assay readout: MTD

* COc1cc(-c2nc3ccccc3s2)ccc1OCCCCCOc1cc2c(cc1OC)C(=O)N1CCC[C@H]1C=N2 | < 50 mg/kg

----------
test system: SN12C; test: Growth inhibition of human SN12C cells after 48 hrs by sulforhodamine B assay; format: functional
assay readout: GI50 (nM)

• COc1cc(-c2nc3ccccc3s2)ccc1OCCCCCOc1cc2c(cc1OC)C(=O)N1CCC[C@H]1C=N2 = 200
• COc1cc2c(cc1OCCCCOc1ccc(-c3nc4ccccc4s3)cc1)N=C[C@@H]1CCCN1C2=O = 631
• COc1cc(-c2nc3ccccc3s2)ccc1OCCCCOc1cc2c(cc1OC)C(=O)N1CCC[C@H]1C=N2 = 955
• COc1cc2c(cc1OCCCCC(=O)Nc1ccc(-c3nc4ccccc4s3)cc1)N=C[C@@H]1CCCN1C2=O = 2820
• COc1cc2c(cc1OCCCCCOc1ccc(-c3nc4ccccc4s3)cc1)N=C[C@@H]1CCCN1C2=O = 813

----------
tested on: Calf thymus DNA; test: Binding affinity to calf thymus duplex-form DNA assessed as melting temperature at 1:5 compound/DNA ratio after 18 hrs; format: nucleic-acid assay; settings: Bos taurus
Catalogue of ΔTm values
assay readout: ΔTm (°C)

• COc1cc2c(cc1OCCCCCOc1ccc(-c3nc4ccccc4s3)cc1)N=C[C@@H]1CCCN1C2=O = 4.3
• COc1cc2c(cc1OCCCCC(=O)Nc1ccc(-c3nc4ccc(F)cc4s3)cc1)N=C[C@@H]1CCCN1C2=O = 2.3
• COc1cc2c(cc1OCCCCC(=O)Nc1ccc(-c3nc4ccccc4s3)cc1)N=C[C@@H]1CCCN1C2=O = 0.5
• COc1cc(-c2nc3ccccc3s2)ccc1OCCCCCOc1cc2c(cc1OC)C(=O)N1CCC[C@H]1C=N2 = 6.3

----------
Catalogue of GI50 values
test system: SF-268; experiment: Growth inhibition of human SF268 cells after 48 hrs by sulforhodamine B assay; format: functional; details: SF-268, 48 h
assay readout: GI50 (nM)

• COc1cc(-c2nc3ccccc3s2)ccc1OCCCCOc1cc2c(cc1OC)C(=O)N1CCC[C@H]1C=N2 = 1230
• COc1cc2c(cc1OCCCCOc1ccc(-c3nc4ccccc4s3)cc1)N=C[C@@H]1CCCN1C2=O = 661
• COc1cc2c(cc1OCCCCC(=O)Nc1ccc(-c3nc4ccccc4s3)cc1)N=C[C@@H]1CCCN1C2=O = 2040
• COc1cc2c(cc1OCCCCCOc1ccc(-c3nc4ccccc4s3)cc1)N=C[C@@H]1CCCN1C2=O = 3240
• COc1cc(-c2nc3ccccc3s2)ccc1OCCCCCOc1cc2c(cc1OC)C(=O)N1CCC[C@H]1C=N2 = 347

----------
system: LOX IMVI; test: Growth inhibition of human LOXIMVI cells after 48 hrs by sulforhodamine B assay; assay type: functional
assay readout: GI50 (nM)

• COc1cc(-c2nc3ccccc3s2)ccc1OCCCCOc1cc2c(cc1OC)C(=O)N1CCC[C@H]1C=N2 = 724
• COc1cc2c(cc1OCCCCOc1ccc(-c3nc4ccccc4s3)cc1)N=C[C@@H]1CCCN1C2=O = 407
• COc1cc2c(cc1OCCCCCOc1ccc(-c3nc4ccccc4s3)cc1)N=C[C@@H]1CCCN1C2=O = 240
• COc1cc2c(cc1OCCCCC(=O)Nc1ccc(-c3nc4ccccc4s3)cc1)N=C[C@@H]1CCCN1C2=O = 1550
• COc1cc(-c2nc3ccccc3s2)ccc1OCCCCCOc1cc2c(cc1OC)C(=O)N1CCC[C@H]1C=N2 = 18.2

----------
test system: OVCAR-5; test: Growth inhibition of human OVCAR5 cells after 48 hrs by sulforhodamine B assay; type: functional; settings: OVCAR-5, 48 h
Output true for records whose GI50 is lower than 500 nM, false for records at or above 500 nM.

* COc1cc2c(cc1OCCCCCOc1ccc(-c3nc4ccccc4s3)cc1)N=C[C@@H]1CCCN1C2=O | false
* COc1cc(-c2nc3ccccc3s2)ccc1OCCCCCOc1cc2c(cc1OC)C(=O)N1CCC[C@H]1C=N2 | true
* COc1cc2c(cc1OCCCCC(=O)Nc1ccc(-c3nc4ccccc4s3)cc1)N=C[C@@H]1CCCN1C2=O | false
* COc1cc2c(cc1OCCCCOc1ccc(-c3nc4ccccc4s3)cc1)N=C[C@@H]1CCCN1C2=O | true

----------
system: ACHN; assay: Growth inhibition of human ACHN cells after 48 hrs by sulforhodamine B assay; assay type: functional
assay readout: log10 of GI50 (log10 of the value in nM)

* COc1cc(-c2nc3ccccc3s2)ccc1OCCCCOc1cc2c(cc1OC)C(=O)N1CCC[C@H]1C=N2 | 2.89
* COc1cc2c(cc1OCCCCOc1ccc(-c3nc4ccccc4s3)cc1)N=C[C@@H]1CCCN1C2=O | 2.56
* COc1cc(-c2nc3ccccc3s2)ccc1OCCCCCOc1cc2c(cc1OC)C(=O)N1CCC[C@H]1C=N2 | 1.73
* COc1cc2c(cc1OCCCCC(=O)Nc1ccc(-c3nc4ccccc4s3)cc1)N=C[C@@H]1CCCN1C2=O | 3.48
* COc1cc2c(cc1OCCCCCOc1ccc(-c3nc4ccccc4s3)cc1)N=C[C@@H]1CCCN1C2=O | 3.04
